target: TMPRSS4 serine protease (Homo sapiens, UniProt Q9NRS4); construct: TMPRSS4 serine protease domain (205th Val˜437th Leu) was cloned in pET21b/NdeI-XhoI; inferred from pET21b XhoI cloning and Ni-NTA purification) (C); made in house; host or cells: E. coli BL21 (DE3); test: Inhibitory effect on TMPRSS4 serine protease activity using peptide substrate; assay type: biochemical; details: 30 uM compound; kallikrein peptide substrate 100 μM; DMSO negative control
Sequence (Q9NRS4 205-437): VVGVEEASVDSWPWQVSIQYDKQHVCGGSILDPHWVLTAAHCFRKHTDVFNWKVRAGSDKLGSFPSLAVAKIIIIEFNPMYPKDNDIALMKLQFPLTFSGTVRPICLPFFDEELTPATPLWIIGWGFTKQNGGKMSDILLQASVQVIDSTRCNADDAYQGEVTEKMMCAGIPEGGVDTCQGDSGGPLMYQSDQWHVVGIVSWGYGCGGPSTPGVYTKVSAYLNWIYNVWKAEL
value.kind: Intracellular protease activity Inhibition % 30 uM (%)
State just the number; it will be interpreted in %.

{"columns": ["compound", "tested.target", "quantitative.result"],
 "data": [
  ["O=C(Nc1ccc(Br)c(C(F)(F)F)c1)c1cc(Cl)ccc1O [Example 16]", "TMPRSS4 serine protease (Homo sapiens, UniProt Q9NRS4)", 93],
  ["O=C(Nc1ccc(Br)c(C(F)(F)F)c1)c1cc(Cl)ccc1O [Example 63]", "TMPRSS4 serine protease (Homo sapiens, UniProt Q9NRS4)", 46],
  ["O=C(Nc1cc(C(F)(F)F)c(Br)c(C(F)(F)F)c1)c1cc(Cl)ccc1O", "TMPRSS4 serine protease (Homo sapiens, UniProt Q9NRS4)", 85]
]}

Okay, now this compound:
Ask: Fill in the blank: the reported Intracellular protease activity Inhibition % 30 uM of "N#Cc1ccc(NC(=O)c2cc(Cl)ccc2O)nc1" is ____.
Reply: 63
